Assay: Cell viability by MTT assay in hADSCs
Format: cell-based, human
Settings: human, human adipose tissue derived stem cells (hADSCs), % of control
Reported viability at 3 days, 10 µM values for the following compounds.
Give the quantity in %, number only.

Illustrative cases are given below, each with its answer.
INPUT: Name the reported viability at 3 days, 10 µM value associated with the compound COc1ccc(-c2cnoc2-c2ccc(OC(C)C)cc2OCCCCCCN2CCOCC2)cc1 [5f]
OUTPUT: 53

INPUT: Let us now turn to COc1ccc(-c2cnoc2-c2ccc(OC(C)C)cc2OCCCCN2CCNCC2)cc1 [5c]
OUTPUT: 86

INPUT: Let us now turn to COc1ccc(-c2cnoc2-c2ccc(OC(C)C)cc2OCCCCN2CCCCC2)cc1 [5d]
OUTPUT: 78

INPUT: Let us now turn to COc1ccc(-c2cnoc2-c2ccc(OC(C)C)cc2OCCCCN2CCCC2)cc1 [5a]
OUTPUT: 71

INPUT: Let us now turn to COc1ccc(-c2cnoc2-c2ccc(OC(C)C)cc2OCCCCCCCN2CCOCC2)cc1 [5j]
OUTPUT: 54

INPUT: Let us now turn to COc1ccc(-c2cnoc2-c2ccc(OC(C)C)cc2OCCCCCCN2CCCCC2)cc1 [5h]
OUTPUT: 57

INPUT: Let us now turn to COc1ccc(-c2cnoc2-c2ccc(OC(C)C)cc2OCCCCN2CCOCC2)cc1 [5b]
OUTPUT: 58

INPUT: Let us now turn to COc1ccc(-c2cnoc2-c2ccc(OC(C)C)cc2OCCCCCCN2CCNCC2)cc1 [5g]
OUTPUT: 60

***
INPUT: Name the reported viability at 3 days, 10 µM value associated with the compound COc1ccc(-c2cnoc2-c2ccc(OC(C)C)cc2O)cc1 [compound 3]
OUTPUT: 6

====

System: NCI-H460 cells (non-small-cell lung cancer)
Assay: Cytotoxicity assay (MTS reduction), NCI-H460
Type: cell-based, human
Settings: Homo sapiens, NCI-H460, 72 h; 4 μg/mL, 3 days, % of DMSO control; read-out: Growth percentage NCI-H460 (Lung)
Protocol: MCF-7 cells (human breast adenocarcinoma), NCI-H460 cells (non-small-cell lung cancer) and SF-268cells (glioblastoma cells) were cultured in a Dulbecco's modified Eagle's medium supplemented with a 10% fetal calf serum and a nonessential amino acid (Life Technologies, Inc.) and maintained at 37° C. in a humidified incubator with 5% CO2. […]
Reported activity at 4 µg/mL values for the following compounds.
Give the quantity in %, number only.

Illustrative cases are given below, each with its answer.
INPUT: Name the reported activity at 4 µg/mL value associated with the compound COc1ccc(-c2cnoc2-c2ccc(OC(C)C)cc2OCCCCCCCN2CCCC2)cc1
OUTPUT: 11

INPUT: Let us now turn to COc1ccc(-c2cnoc2-c2ccc(OC(C)C)cc2OCCCCCCN2CCNCC2)cc1
OUTPUT: 0

INPUT: Let us now turn to COc1ccc(-c2cnoc2-c2ccc(OC(C)C)cc2OCCCCCCCN2CCNCC2)cc1
OUTPUT: 0

INPUT: Let us now turn to COc1ccc(-c2cnoc2-c2ccc(OC(C)C)cc2OCCCCN2CCCCC2)cc1
OUTPUT: 68

***
INPUT: Name the reported activity at 4 µg/mL value associated with the compound COc1ccc(-c2cnoc2-c2ccc(OCCCCCCN3CCNCC3)cc2O)cc1
OUTPUT: 29

INPUT: Let us now turn to COc1ccc(-c2cnoc2-c2ccc(OC(C)C)cc2OCCCCCCN2CCOCC2)cc1
OUTPUT: 17

INPUT: Let us now turn to COc1ccc(-c2cnoc2-c2ccc(OC(C)C)cc2OCCCCCCCN2CCOCC2)cc1
OUTPUT: 10

INPUT: Let us now turn to COc1ccc(-c2cnoc2-c2ccc(OC(C)C)cc2OCCCCCCN2CCCC2)cc1
OUTPUT: 22

INPUT: Let us now turn to COc1ccc(-c2cnoc2-c2ccc(OC(C)C)cc2OCCCCCCN2CCCCC2)cc1
OUTPUT: 2
